Target: Androgen receptor (Homo sapiens) (UniProt P10275)
Sequence (P10275 whole entry, looked up): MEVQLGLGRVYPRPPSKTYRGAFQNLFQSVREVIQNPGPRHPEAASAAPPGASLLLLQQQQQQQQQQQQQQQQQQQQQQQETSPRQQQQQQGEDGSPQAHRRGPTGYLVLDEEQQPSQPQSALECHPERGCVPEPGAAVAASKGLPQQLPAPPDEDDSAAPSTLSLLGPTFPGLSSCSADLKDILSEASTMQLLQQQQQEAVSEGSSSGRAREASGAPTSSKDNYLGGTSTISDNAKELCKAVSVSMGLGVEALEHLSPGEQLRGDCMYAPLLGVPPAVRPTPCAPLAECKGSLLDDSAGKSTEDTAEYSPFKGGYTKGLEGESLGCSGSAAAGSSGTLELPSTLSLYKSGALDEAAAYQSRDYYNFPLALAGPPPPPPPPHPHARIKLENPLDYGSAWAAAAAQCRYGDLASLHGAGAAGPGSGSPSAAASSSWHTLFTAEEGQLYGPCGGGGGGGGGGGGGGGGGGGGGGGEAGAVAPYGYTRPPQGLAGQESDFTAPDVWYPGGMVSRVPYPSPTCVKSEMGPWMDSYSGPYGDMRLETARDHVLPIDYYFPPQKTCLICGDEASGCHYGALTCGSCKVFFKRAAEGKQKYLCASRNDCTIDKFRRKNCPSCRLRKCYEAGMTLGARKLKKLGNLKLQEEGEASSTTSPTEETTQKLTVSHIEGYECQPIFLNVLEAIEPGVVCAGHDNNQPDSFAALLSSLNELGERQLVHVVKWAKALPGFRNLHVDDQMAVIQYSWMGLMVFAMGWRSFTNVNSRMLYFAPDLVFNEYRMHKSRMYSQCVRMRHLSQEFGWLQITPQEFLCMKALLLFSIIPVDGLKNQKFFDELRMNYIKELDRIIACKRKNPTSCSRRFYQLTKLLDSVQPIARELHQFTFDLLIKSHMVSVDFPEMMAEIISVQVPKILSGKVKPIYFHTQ
Experiment: qHTS assay to identify small molecule agonists of the androgen receptor (AR) signaling pathway (AID 743036); as to activation: % is scaled to controls: 0 for no effect and ±100 for the full control effect
Conditions: HEK293 AR-UAS-bla GripTite, beta-lactamase FRET ratio, 16 h; series mostly up to 62.4 µM
Inconclusive results are not listed. The source made the active and inactive calls. Calls follow the shape of the dose curve; as a rule, active = well fitted activation curve with a large enough effect in the signal ratio in the repeat runs, with a control signal flat (not every such curve was filed as active); inconclusive = weak or mixed curves, or effect the other way; inactive = no such curve, though single readings can be large or run the other way; the % refers to the signal ratio.
Classes to choose from: Y for active, N for inactive

// known answers, use as guide
{"columns": ["MOLECULE", "MEASURED_ON", "DISCRETE_LABEL"],
 "data": [
  ["CCC1OC(=O)C[C@@H](O)[C@H](C)[C@@H](O[C@@H]2O[C@H](C)C[C@H](N(C)C)[C@H]2O)[C@@H](CC=O)C[C@@H](C)C(=O)/C=C/[C@]2(C)OC2C1C (stereo partly drawn)", "Androgen receptor (Homo sapiens) (UniProt P10275)", "N"],
  ["CCC[C@@H]1C[C@@H](C(=O)N[C@@H]([C@H]2O[C@H](SC)[C@H](OP(=O)(O)O)[C@@H](O)[C@H]2O)[C@H](C)Cl)N(C)C1", "Androgen receptor (Homo sapiens) (UniProt P10275)", "N"],
  ["CC1(C)S[C@@H]2[C@H](NC(=O)[C@H](N)c3ccc(O)cc3)C(=O)N2[C@H]1C(=O)O", "Androgen receptor (Homo sapiens) (UniProt P10275)", "N"],
  ["CCOc1cc(CC(=O)N[C@@H](CC(C)C)c2ccccc2N2CCCCC2)ccc1C(=O)O", "Androgen receptor (Homo sapiens) (UniProt P10275)", "N"],
  ["CC[C@H]1OC(=O)C[C@@H](O)[C@H](C)[C@@H](O[C@@H]2O[C@H](C)[C@@H](O)[C@H](N(C)C)[C@H]2O)[C@@H](CCN2C[C@H](C)C[C@H](C)C2)C[C@@H](C)C(=O)/C=C/C(C)=C/[C@@H]1CO[C@@H]1O[C@H](C)[C@@H](O)[C@@H](OC)[C@H]1OC", "Androgen receptor (Homo sapiens) (UniProt P10275)", "N"],
  ["CC1=C(/C=C/C(C)=C/C=C/C(C)=C/C=C/C=C(C)/C=C/C=C(C)/C=C/C2=C(C)CCCC2(C)C)C(C)(C)CCC1", "Androgen receptor (Homo sapiens) (UniProt P10275)", "N"],
  ["COc1ccc([C@@H]2CC(=O)c3c(O)cc(O[C@@H]4O[C@H](CO[C@@H]5O[C@@H](C)[C@H](O)[C@@H](O)[C@H]5O)[C@@H](O)[C@H](O)[C@H]4O)cc3O2)cc1O", "Androgen receptor (Homo sapiens) (UniProt P10275)", "N"],
  ["CN[C@@H]1[C@@H](O[C@H]2O[C@H](CO)[C@@H](N)[C@H](O)[C@H]2O)O[C@H]2C[C@@H](N)[C@@H](O[C@H]3[C@H](O)[C@@H](O)[C@H](N)C[C@@H]3N)O[C@@H]2[C@@H]1O", "Androgen receptor (Homo sapiens) (UniProt P10275)", "N"],
  ["CCN1CCCC1CNC(=O)c1cc(S(=O)(=O)CC)ccc1OC (stereo not drawn)", "Androgen receptor (Homo sapiens) (UniProt P10275)", "N"],
  ["COc1cc(NS(C)(=O)=O)ccc1Nc1c2ccccc2nc2ccccc12", "Androgen receptor (Homo sapiens) (UniProt P10275)", "Y"]
]}

Query: Per the records of this test, what outcome belongs to CC12CCC(C1)C(C)(C)C2=O (stereo not drawn) ?
Response: N

Query: Per the records of this test, what outcome belongs to CCCCCCCCCCCCCCCC(=O)OC[C@H](COP(=O)([O-])OCC[N+](C)(C)C)OC(=O)CCCCCCCCCCCCCCC ?
Response: N

Query: Per the records of this test, what outcome belongs to C[C@@H]1O[C@@H](OC[C@H]2O[C@@H](Oc3c(-c4ccc(OCCO)c(OCCO)c4)oc4cc(OCCO)cc(O)c4c3=O)[C@H](O)[C@@H](O)[C@@H]2O)[C@H](O)[C@H](O)[C@H]1O ?
Response: N

====

Molecular target: Aromatase (Homo sapiens)
Test: qHTS assay to identify aromatase inhibitors (AID 743083); also: nearly all actives have a fitted effect of over 55% in size
Conditions: MCF-7 aro ERE, testosterone-driven ERE luciferase, 24 h; series mostly up to 70.3 µM
Results filed as inconclusive are left out. Calls of active or inactive are those of the source. Calls come from the whole dose curve; as a rule, active = well fitted inhibition curve with a large enough effect in the repeat runs; inconclusive = weak or mixed curves; inactive = no such curve, though single readings can be large or run the other way.
Classes to choose from: true for active, false for inactive

// known answers, use as guide
{"columns": ["COMPOUND", "DISCRETE_LABEL"],
 "data": [
  ["O=P(O)(O)OP(=O)(O)OP(=O)(O)O", "false"],
  ["C=CC(N)CCC(=O)O (stereo unspecified)", "false"],
  ["CCCCCCOC(=O)c1cccnc1", "false"],
  ["CSCCC(N)C(=O)O (stereo unspecified)", "false"],
  ["C[C@H](NCCc1ccc(O)cc1)[C@H](O)c1ccc(O)cc1", "false"]
]}

Kindly review the next compound as well.
Query: Per the records of this test, what outcome belongs to Cc1cc(-c2ccc(N=Nc3ccc4c(S(=O)(=O)O)cc(S(=O)(=O)O)c(N)c4c3O)c(C)c2)ccc1N=Nc1ccc2c(S(=O)(=O)O)cc(S(=O)(=O)O)c(N)c2c1O ?
Response: true

====

Assay: Caspase-3/7 induction in HepG2 cells by small molecules, qHTS cell viability counter screen (AID 1346981); also: nearly all actives have a fitted effect of over 30% in size
Details: CellTiter-Fluor fluorescence, 17 h; series mostly up to 92.4 µM
Inconclusive results are not listed. Activity calls are given as the source filed them. Calls come from the whole dose curve; as a rule, active = well fitted cell-killing curve with a large enough effect in the repeat runs; inconclusive = weak or mixed curves, or effect the other way; inactive = flat fitted curve, though single readings scatter.
Classes to choose from: active, inactive

// known answers, use as guide
{"columns": ["MOLECULE", "DISCRETE_LABEL"],
 "data": [
  ["CSc1nnc(C(C)(C)C)c(=O)[nH]1", "inactive"],
  ["C1CCSC1", "inactive"],
  ["Cc1cc(C)c(O)c(C(C)(C)C)c1", "inactive"],
  ["CCc1c(C)cc(N)c(CC)c1N", "inactive"],
  ["CN(C[C@@H](CC[N+]12CCC(C3CCCCC3)(CC1)CC2)c1ccc(Cl)c(Cl)c1)C(=O)c1cc(C(F)(F)F)cc(C(F)(F)F)c1", "active"],
  ["COc1cc(OC)nc(NC(=O)NS(=O)(=O)Nc2ccccc2C(=O)N(C)C)n1", "inactive"]
]}

Kindly review the next molecule as well.
Query: Per the records of this test, what outcome belongs to CCCC(=O)c1cc(O)c(O)cc1O ?
Response: active

====

Experiment: qHTS assay to identify small molecule antagonists of the sonic hedgehog signaling (Shh) pathway - cell viability counter screen (AID 1259367); also: nearly all actives have a fitted effect of over 55% in size
Details: NIH/3T3 Gli1-Luc viability, CellTiter-Fluor, 24 h; series mostly up to 92.4 µM
Records with an inconclusive call do not appear. Calls of active or inactive are those of the source. The call rests on the fitted dose curve; in most records, active means well fitted cell-killing curve with a large enough effect in the repeat runs; inconclusive means weak or mixed curves, or effect the other way; inactive means no such curve, though single readings can be large or run the other way.
Classes to choose from: 1 = active, 0 = inactive

// known answers, use as guide
{"columns": ["MOLECULE", "DISCRETE_LABEL"],
 "data": [
  ["CCc1cccc(CC)c1", 0],
  ["O=C1CCCCCCCCCCCCCC1", 0],
  ["Clc1cccc(Cl)n1", 0],
  ["CSc1ccc(O)cc1C", 1],
  ["CCCCCCCCCCCC(=O)Cl", 0],
  ["CC(C)c1ccc2sc3ccccc3c(=O)c2c1", 0],
  ["N#Cc1ccc(C/C(=N/NC(=O)Nc2ccc(OC(F)(F)F)cc2)c2cccc(C(F)(F)F)c2)cc1", 0],
  ["CC(C)=CCC[C@H](C)CC=O", 0],
  ["Nc1cc([N+](=O)[O-])ccc1Cl", 0],
  ["C[C@H]1O[C@@H](O[C@H]2CC[C@@]3(C)[C@H](CC[C@@H]4[C@@H]3C[C@@H](O)[C@]3(C)[C@@H](C5=CC(=O)OC5)CC[C@]43O)C2)C[C@H](O)[C@@H]1O[C@H]1C[C@H](O)[C@H](O[C@H]2C[C@H](O)[C@H](O[C@@H]3O[C@H](CO)[C@@H](O)[C@H](O)[C@H]3O)[C@@H](C)O2)[C@@H](C)O1", 0]
]}

Query: Per the records of this test, what outcome belongs to CCC(O)CO (stereo not drawn) ?
Response: 0

Query: Per the records of this test, what outcome belongs to Cc1ccc2sc3cccc(C)c3c2c1 ?
Response: 0

Query: Per the records of this test, what outcome belongs to c1ccc2occc2c1 ?
Response: 0

====

Experiment: qHTS assay to identify small molecule antagonists of the estrogen related receptor signaling pathway with the pleiotropic PPARgamma coactivator (PGC) cell viability counter screen (AID 1224822;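 also: viability read after 17.5 h compound exposure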)
Conditions: ERR/PGC reporter cell line viability counter screen; series mostly up to 46.1 µM
Inconclusive results are not listed. Calls of active or inactive are those of the source. Calls follow the shape of the dose curve; as a rule, active = well fitted cell-killing curve with a large enough effect in the repeat runs; inconclusive = weak or mixed curves, or effect the other way; inactive = flat fitted curve, though single readings scatter.
Classes to choose from: true (1) (active), false (0) (inactive)

{"columns": ["COMPOUND", "DISCRETE_LABEL"],
 "data": [
  ["N[C@@H](Cc1ccc(F)cc1)C(=O)O", "false (0)"],
  ["NC(=O)c1ccc2[nH]ccc2c1", "false (0)"],
  ["CN1CCN(CCCN2c3ccccc3Sc3ccc(Cl)cc32)CC1", "true (1)"]
]}

Query: Per the records of this test, what outcome belongs to O=C(Nc1ccc2[nH]ncc2c1)C1CCC1 ?
Response: false (0)

Query: Per the records of this test, what outcome belongs to NC(=O)CC[C@H](N)C(=O)O ?
Response: false (0)

Query: Per the records of this test, what outcome belongs to O=C(O)C1CCCNC1 (configuration not stated) ?
Response: false (0)

Query: Per the records of this test, what outcome belongs to CCCn1c(=O)c2c(ncn2C)n(CCC)c1=O ?
Response: false (0)
